# target system: FGFR3 kinase (Homo sapiens, UniProt P22607)
# Sequence (P22607 23-806): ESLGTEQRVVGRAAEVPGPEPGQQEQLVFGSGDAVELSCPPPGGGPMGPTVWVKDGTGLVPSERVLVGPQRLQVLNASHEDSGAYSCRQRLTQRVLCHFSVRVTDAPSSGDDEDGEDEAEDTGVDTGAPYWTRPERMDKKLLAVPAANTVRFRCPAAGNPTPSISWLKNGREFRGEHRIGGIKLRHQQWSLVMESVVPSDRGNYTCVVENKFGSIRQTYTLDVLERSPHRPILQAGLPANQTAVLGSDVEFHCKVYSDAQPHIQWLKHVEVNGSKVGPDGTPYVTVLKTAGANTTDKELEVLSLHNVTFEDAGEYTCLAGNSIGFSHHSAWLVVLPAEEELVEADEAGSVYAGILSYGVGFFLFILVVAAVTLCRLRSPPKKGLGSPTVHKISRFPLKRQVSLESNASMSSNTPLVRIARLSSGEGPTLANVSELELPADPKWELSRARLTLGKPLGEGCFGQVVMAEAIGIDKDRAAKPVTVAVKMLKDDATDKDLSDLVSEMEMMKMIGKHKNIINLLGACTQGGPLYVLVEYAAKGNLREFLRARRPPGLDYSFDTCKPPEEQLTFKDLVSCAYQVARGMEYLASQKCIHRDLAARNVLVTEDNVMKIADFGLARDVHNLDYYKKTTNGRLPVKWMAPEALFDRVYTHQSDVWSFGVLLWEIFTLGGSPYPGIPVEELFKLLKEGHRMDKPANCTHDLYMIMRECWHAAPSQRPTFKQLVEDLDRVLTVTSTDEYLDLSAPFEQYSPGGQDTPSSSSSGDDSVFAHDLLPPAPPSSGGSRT
measure name: IC50 (nM)

Sample answers from the record:
molecule	target system	unit spec	IC50
CONC(=O)c1cc(CCc2cnc(Nc3cccc(N4C[C@@H](C)N[C@@H](C)C4)c3)nc2)cc(OC)c1	FGFR3 kinase (Homo sapiens, UniProt P22607)	nM	8
CNC(=O)c1cc(CCc2cnc(Nc3ccc4c(C)n(C)nc4c3)nc2)c(F)c(OC)c1	FGFR3 kinase (Homo sapiens, UniProt P22607)	nM	10
CCn1cnc(Nc2ncc(CCc3cc(C(=O)NC)cc(OC)c3F)cn2)c1	FGFR3 kinase (Homo sapiens, UniProt P22607)	nM	347
CNC(=O)c1cc(CCc2cnc(Nc3cnn(C4CCC4)c3)nc2)c(F)c(OC)c1	FGFR3 kinase (Homo sapiens, UniProt P22607)	nM	8

(a) CCN1CC[C@@H](n2cc(Nc3ncc(CCc4cc(C(=O)NC)cc(OC)c4F)cn3)cn2)C1 [Compound 171]
(b) CCN1CCN(c2ccc(Nc3ncc(CCc4cc(C(=O)NC)cc(OC)c4F)cn3)cc2)C[C@H]1C
(c) CCn1cc(Nc2ncc(CCc3c(F)c(C(=O)NC)cc(OC)c3Cl)cn2)cn1
Put the molecules in ascending order of IC50. Please reply with the labels ordered as requested. Many thanks.
b, c, a

Data origin: patent US20160052926A1
